System: SK-MEL-5 melanoma
Experiment: NCI tumour cell line growth inhibition, 48 h
REPORTED ENDPOINT: GI50

INPUT SMILES	RESULT
C#CCCCCCC(=O)N[C@H]1C=C[C@@H]2/C=C(C)/C=C/[C@@H](C)[C@H]([C@H](C)[C@H](O)[C@@H](C)NC(C)=O)OC(=O)/C=C/C=C(C)\C=C\[C@]2(C)C1	< 4 nM
O=C(NO)c1ccc(CNc2cccc3nc(C4CC4)n(-c4ccccc4)c(=O)c23)cc1	2150 nM
O=C1c2ccccc2-c2c1c1c(O)cccc1n2Cc1ccccc1	5620 nM
Oc1c(Br)cc(Cl)cc1C(c1cc(Cl)cc(Br)c1O)C(Cl)(Cl)Cl	1640 nM

Data provenance: PubChem BioAssay (NCI)
